The molecules listed here are annotated with their cytotoxicity at 10 µM.
TEST: Toxicity liver stage against HepG2, at 10uM
Assay type: cell-based
Parameters: test concentration 10 uM, cell line HepG2-A16-CD81EGFP
RECORDED CONDITIONS: human, HepG2-A16-CD81EGFP cells; read-out: INHIBITION

[
  {
    "MOLECULE": "N#CCCn1cnc2c(F)cc(Br)cc2c1=O",
    "cytotoxicity at 10 µM (%)": 0.997
  },
  {
    "MOLECULE": "O=c1cc(N2CCCCC2)cnn1CC(O)C(F)(F)F (stereo not drawn)",
    "cytotoxicity at 10 µM (%)": 12.3
  },
  {
    "MOLECULE": "Cc1csc(CNC(=O)N(C)Cc2ccc3c(c2)OCO3)n1",
    "cytotoxicity at 10 µM (%)": -4.31
  },
  {
    "MOLECULE": "Cc1cc(C)nc(Nc2nccnc2C2CCCN(C(C)C)C2)n1 (stereo not drawn)",
    "cytotoxicity at 10 µM (%)": -6.15
  },
  {
    "MOLECULE": "COC(=O)[C@@H]1CCCN1C(=O)c1cn(C/C=C/c2ccccc2)nn1",
    "cytotoxicity at 10 µM (%)": 3.61
  },
  {
    "MOLECULE": "CC(C)n1nc2c(cc1=O)CN(c1ncnc3ccccc13)CC2",
    "cytotoxicity at 10 µM (%)": 52.2
  },
  {
    "MOLECULE": "Cn1cc(CN2CC[C@@H]3[C@@H](CCC(=O)N3CCC3=CCCCC3)C2)cn1",
    "cytotoxicity at 10 µM (%)": -8.68
  },
  {
    "MOLECULE": "Cc1cccc(CN2C[C@@H]3OCCN(CC(=O)N(C)C)[C@@H]3C2)c1",
    "cytotoxicity at 10 µM (%)": -110
  },
  {
    "MOLECULE": "COCCN1CCC(NC(=O)C(C)C)CC1",
    "cytotoxicity at 10 µM (%)": -2.45
  },
  {
    "MOLECULE": "Cc1ccc(NC2CCN(C(=O)c3cnc(C)s3)CC2)nn1",
    "cytotoxicity at 10 µM (%)": 2.48
  },
  {
    "MOLECULE": "CN1CC(=O)N(c2cccnc2)Cc2c(NC3CC3)ncnc21",
    "cytotoxicity at 10 µM (%)": 5.28
  },
  {
    "MOLECULE": "Cc1noc([C@@H]2C[C@H](NC(=O)Nc3ccccc3)CN2C)n1",
    "cytotoxicity at 10 µM (%)": -1.89
  },
  {
    "MOLECULE": "CC(=O)N1CCc2[nH]c(=O)ccc2C1",
    "cytotoxicity at 10 µM (%)": 0.351
  },
  {
    "MOLECULE": "CCNC(=O)Cc1c(C)nc2c(c1C)c(=O)[nH]n2C",
    "cytotoxicity at 10 µM (%)": 2.62
  },
  {
    "MOLECULE": "CNC(=O)c1sc2ccccc2c1CC1CCCCN1Cc1ncc[nH]1 (stereo not drawn)",
    "cytotoxicity at 10 µM (%)": 2.35
  },
  {
    "MOLECULE": "CC(=O)Nc1nc(C(=O)NCCOc2cccc(F)c2)cs1",
    "cytotoxicity at 10 µM (%)": 7.9
  },
  {
    "MOLECULE": "CCn1cnnc1CNC(=O)c1cc(Cl)ccc1F",
    "cytotoxicity at 10 µM (%)": -7.75
  },
  {
    "MOLECULE": "Cc1cccc2[nH]c(COCC(=O)N3CCCn4cncc4C3)nc12",
    "cytotoxicity at 10 µM (%)": 2.03
  },
  {
    "MOLECULE": "Cc1n[nH]c(C2CN(C(=O)c3cc4c(s3)CCCC4)CCO2)n1 (stereo not drawn)",
    "cytotoxicity at 10 µM (%)": -14.9
  },
  {
    "MOLECULE": "CC(C)N(C)Cc1cnc2n1CCN(CCc1ccccc1)C2",
    "cytotoxicity at 10 µM (%)": -4.58
  },
  {
    "MOLECULE": "COc1ccc(C(C(=O)O)N(C)Cc2ccon2)cc1Cl (stereo not drawn)",
    "cytotoxicity at 10 µM (%)": -5.02
  },
  {
    "MOLECULE": "Cc1nc(C(C)C)sc1C(=O)N1CCN(C2CCSCC2)CC1",
    "cytotoxicity at 10 µM (%)": 6.62
  },
  {
    "MOLECULE": "CN(Cc1noc(C(C)(C)C)n1)Cc1ccccc1N1CCCCC1",
    "cytotoxicity at 10 µM (%)": -4.73
  },
  {
    "MOLECULE": "c1cc(C2CCN(c3cncnc3)CC2)ccn1",
    "cytotoxicity at 10 µM (%)": 2.58
  },
  {
    "MOLECULE": "Cn1cc2ncn(CCNc3cccnc3)c(=O)c2n1",
    "cytotoxicity at 10 µM (%)": 2.52
  },
  {
    "MOLECULE": "Cc1cc2ncn(C(=O)N3CCOCC3)c2cc1C",
    "cytotoxicity at 10 µM (%)": -1.45
  },
  {
    "MOLECULE": "O=C(NCC1CC1)C1CN(C(=O)Nc2ccccc2)CC12CCOCC2 (stereo not drawn)",
    "cytotoxicity at 10 µM (%)": -82.6
  },
  {
    "MOLECULE": "CC(C)OCc1ccc(CNC(=O)NC2(CO)CCCC2)cc1",
    "cytotoxicity at 10 µM (%)": -48.9
  },
  {
    "MOLECULE": "CCN1CCN(C[C@@H]2CN(c3ncccc3Cl)C[C@@H]2CO)CC1",
    "cytotoxicity at 10 µM (%)": -4.81
  },
  {
    "MOLECULE": "COCCOCCNS(=O)(=O)C1CS(=O)(=O)c2ccccc21 (stereo not drawn)",
    "cytotoxicity at 10 µM (%)": -15.3
  },
  {
    "MOLECULE": "O=c1c2sccc2nc2n1CCN(Cc1ccc(F)c(F)c1)CC2",
    "cytotoxicity at 10 µM (%)": -26
  },
  {
    "MOLECULE": "COC(=O)CC1C(=O)NCCN1c1nc2c(s1)c(C)nn2C (stereo not drawn)",
    "cytotoxicity at 10 µM (%)": -7.36
  },
  {
    "MOLECULE": "O=C(c1cc2c(s1)CCC2)N1CCN(c2cnccn2)CC1",
    "cytotoxicity at 10 µM (%)": 1.5
  },
  {
    "MOLECULE": "Cn1cc(NC(=O)c2cc[nH]n2)cc(Cl)c1=O",
    "cytotoxicity at 10 µM (%)": -18.3
  },
  {
    "MOLECULE": "CSc1nc2ccsc2c(=O)n1CC(=O)N(C)C1CCCCC1",
    "cytotoxicity at 10 µM (%)": 0.773
  },
  {
    "MOLECULE": "CCC1CN(C(=O)c2cccc(O)c2)CCC(=O)N1Cc1ccccc1 (stereo not drawn)",
    "cytotoxicity at 10 µM (%)": 6.78
  },
  {
    "MOLECULE": "COc1ncc(-c2nccn2C(C)CCn2cccn2)cn1 (stereo not drawn)",
    "cytotoxicity at 10 µM (%)": 0.728
  },
  {
    "MOLECULE": "Cc1cnn(CC2CCCN2C(=O)c2cccc(CC#N)c2)c1 (stereo not drawn)",
    "cytotoxicity at 10 µM (%)": -8.62
  },
  {
    "MOLECULE": "O=C([C@H]1C[C@H]2OCC[C@H]2N(Cc2ccoc2)C1)N1CCCCO1",
    "cytotoxicity at 10 µM (%)": -73.2
  },
  {
    "MOLECULE": "CC(C)c1cc(NC(=O)c2ccc(NC3CC3)nc2)[nH]n1",
    "cytotoxicity at 10 µM (%)": -8.9
  },
  {
    "MOLECULE": "C[C@H]1C[C@H]2CN(Cc3ccccn3)CC[C@@H]2O1",
    "cytotoxicity at 10 µM (%)": -78.2
  },
  {
    "MOLECULE": "c1cc(-c2noc(CN3CCn4c(nnc4C4CC4)C3)n2)co1",
    "cytotoxicity at 10 µM (%)": -0.986
  },
  {
    "MOLECULE": "O=C(c1cc2cc(I)ccc2[nH]1)N1CCC(Nc2cccnn2)CC1",
    "cytotoxicity at 10 µM (%)": -8.12
  },
  {
    "MOLECULE": "CCCN1Cc2cc(Br)ccc2OCC1=O",
    "cytotoxicity at 10 µM (%)": 3.72
  },
  {
    "MOLECULE": "O=C(c1sccc1C1CC1)N1CCN(c2nccs2)CC1",
    "cytotoxicity at 10 µM (%)": 1.41
  },
  {
    "MOLECULE": "CNC(=O)c1cc2c(nc1NCC(C)C)CCN(S(=O)(=O)C1CC1)CC2",
    "cytotoxicity at 10 µM (%)": -4.88
  },
  {
    "MOLECULE": "CCn1c(CN(C)C)nnc1C1CCN(Cc2cccc(C#N)c2)CC1",
    "cytotoxicity at 10 µM (%)": 6.5
  },
  {
    "MOLECULE": "CNC(=O)Cc1ccccc1NC(=O)C1CCCC1",
    "cytotoxicity at 10 µM (%)": 31.1
  }
]
